# reported viability, T/C; entries follow
System: 782815-120-R-J1-PDC complex spheroid viability;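 further: spheroids exposed to compounds for 7 days before reading; 100% = DMSO vehicle control viability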
Test: Anticancer human tumor 782815-120-R-J1-PDC patient-derived colon adenocarcinoma cell line growth inhibition [RAS]
Conditions: second compound 0.00949 µM; first compound 0.01 µM; hits give low values
Output spec: scalar in %, unitless text.

>>> result_number("CCN1CCN(Cc2ccc(Nc3ncc(F)c(-c4cc(F)c5nc(C)n(C(C)C)c5c4)n3)nc2)CC1 + CCn1c(-c2cc(N3CCN(C)CC3)cnc2C(C)OC)c2c3cc(ccc31)-c1csc(n1)CC(NC(=O)C1CC1C)C(=O)N1CCCC(N1)C(=O)OCC(C)(C)C2")
36.4

Now take the following compound into account.
Task item: // fetch viability, T/C given entry CC(C)n1nc(-c2ccc3oc(N)nc3c2)c2c(N)ncnc21 + CCn1c(-c2cc(N3CCN(C)CC3)cnc2C(C)OC)c2c3cc(ccc31)-c1csc(n1)CC(NC(=O)C1CC1C)C(=O)N1CCCC(N1)C(=O)OCC(C)(C)C2
Reply: 29
